value kind: melting point

In [3]: df
Out[3]:
                                   compound   assay_result
0  C[C@H](NC(=O)Cc1cc(F)cc(F)c1)C(=O)N[C@@H]1C(=O)Nc2ccccc2S[C@@H]1c1ccco1 [Example 101]  125 to 130 °C
1  C[C@H](NC(=O)Cc1cc(F)cc(F)c1)C(=O)N[C@@H]1C(=O)Nc2ccccc2S[C@@H]1c1ccsc1 [Example 100]  117 to 122 °C
2  O=C(Cc1cc(F)cc(F)c1)NCC(=O)N[C@@H]1C(=O)Nc2ccccc2S[C@@H]1c1ccccc1 [Example 106]  125 to 130 °C
3  C[C@H](NC(=O)Cc1cc(F)cc(F)c1)C(=O)N[C@@H]1C(=O)Nc2ccccc2S[C@H]1c1ccoc1 [Example 102]  115 to 120 °C
4  C[C@H](NC(=O)Cc1ccccc1F)C(=O)N[C@@H]1C(=O)Nc2ccccc2O[C@@H]1c1ccccc1 [Example 114]  115 to 135 °C

Task item: Give the measured melting point of CSCC[C@H](NC(=O)Cc1cc(F)cc(F)c1)C(=O)N[C@@H]1C(=O)Nc2ccccc2S[C@@H]1c1ccccc1 [Example 109] .
Reply: 85 to 90 °C

Task item: Give the measured melting point of C[C@H](NC(=O)Cc1cc(F)cc(F)c1)C(=O)N[C@@H]1C(=O)Nc2ccccc2S[C@@H]1c1cc(Br)cs1 [Example 104] .
Reply: 145 to 155 °C

Task item: Give the measured melting point of C[C@H](NC(=O)Cc1cc(F)cc(F)c1)C(=O)N[C@@H]1C(=O)NCCS[C@@H]1c1ccccc1 [Example 7] .
Reply: 128 to 133 °C

Task item: Give the measured melting point of O=C(Cc1cc(F)cc(F)c1)N[C@@H](Cc1cc2ccccc2[nH]1)C(=O)N[C@@H]1C(=O)Nc2ccccc2S[C@@H]1c1ccccc1 [Example 110] .
Reply: 85 to 90 °C
